Taken from patent US9522914B2.

Molecular target: Human V1b receptor (Homo sapiens (Human), UniProt P47901)
Sequence (P47901 whole entry): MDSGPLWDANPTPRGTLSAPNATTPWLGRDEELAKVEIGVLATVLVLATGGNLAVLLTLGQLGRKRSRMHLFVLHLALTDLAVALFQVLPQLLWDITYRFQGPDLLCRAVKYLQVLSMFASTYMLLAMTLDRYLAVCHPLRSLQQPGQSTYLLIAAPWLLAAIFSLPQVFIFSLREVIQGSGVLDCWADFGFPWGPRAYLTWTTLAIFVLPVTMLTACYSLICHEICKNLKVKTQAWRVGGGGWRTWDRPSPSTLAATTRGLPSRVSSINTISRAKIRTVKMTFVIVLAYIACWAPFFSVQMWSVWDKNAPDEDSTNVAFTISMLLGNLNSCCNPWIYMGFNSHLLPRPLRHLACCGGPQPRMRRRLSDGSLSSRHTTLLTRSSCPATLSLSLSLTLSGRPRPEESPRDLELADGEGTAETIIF
Experiment: Binding Test for V1b Receptor ([3H]AVP, crude membrane preparation of 293FT cells)
Conditions: inhibition of [3H]AVP binding (0.4 to 1 nmol/L), room temperature, 60 minutes
Protocol: Binding Test for V1b Receptor Human V1b receptor was transiently expressed in 293FT cells (Invitrogen). […] The GF/C filter was dried and after adding a scintillator, the residual radioactivity on the filter was measured using TopCount (PerkinElmer Inc.). The radioactivity in the presence of unlabeled AVP at […] was defined as 0%, and the radioactivity in the absence of unlabeled AVP was defined as 100%. […]
reported metric: IC50 (nM)
State the answer as a number, implicitly in nM.

Summary for this molecule, `CC(C)(C)NC(=O)Cc1nn(-c2ccc(CCN3CCOCC3)cc2)c(=O)n1-c1ccc(F)c(Cl)c1` : IC50 is 2.8

Summary for this molecule, `CC(C)(C)NC(=O)Cc1nn(-c2ccc(CCN3CCOCC3)cn2)c(=O)n1-c1ccc(F)c(Cl)c1` : IC50 is 17

Summary for this molecule, `CC(C)NC(=O)Cc1nn(-c2ccc(CCN3CCCC3)cc2)c(=O)n1-c1ccc(F)c(Cl)c1` : IC50 is 15

Summary for this molecule, `CC(C)(C)NC(=O)Cc1nn(-c2ccc(CCN3C4CCC3COC4)cn2)c(=O)n1-c1ccc(F)c(Cl)c1` : IC50 is 9.1

Summary for this molecule, `COc1cc(-n2c(CC(=O)NC(C)C)nn(-c3ccc(CCN4C5CCC4COC5)cc3)c2=O)ccc1F` : IC50 is 12

Summary for this molecule, `COc1cc(-c2nc(-c3ccc(CCN4C5CCC4COC5)cn3)nn2CC(=O)NC(C)C)ccc1F` : IC50 is 3.3

----------
Target: Human V1b receptor (Homo sapiens (Human), UniProt P47901)
Assay: Binding Test for V1b Receptor ([3H]AVP, crude membrane preparation of 293FT cells)
Conditions: inhibition of [3H]AVP binding (0.4 to 1 nmol/L), room temperature, 60 minutes
What IC50 was measured for each of the following?

Summary for this molecule, COc1cccc(-c2nc(-c3ccc(CCN4CCC(N(C)C)CC4)cc3)nn2CC(=O)NC(C)C)c1 [Example B-26] : IC50 is 100 to 1000 nM

Summary for this molecule, COc1cccc(-n2c(CC(=O)NC(C)C)nn(-c3ccc(CCN4C5CCC4COC5)cn3)c2=O)c1 [Example D-40] : IC50 is 100 to 1000 nM

Summary for this molecule, CC(C)NC(=O)Cc1nn(-c2ccc(CCN3CCOCC3)cc2)c(=O)n1-c1cccc(C(F)(F)F)c1 [Example D-35] : IC50 is 18 nM

Summary for this molecule, COc1cccc(-c2nc(-c3ccc(CCN4CCCCC4)cc3)cn2CC(=O)NC(C)C)c1 [Example A-37] : IC50 is 10 to 100 nM

Summary for this molecule, CC(C)NC(=O)Cc1nn(-c2ccc(CCN3CCSCC3)cc2)c(=O)n1-c1cccc(Cl)c1 [Example D-48] : IC50 is 10 to 100 nM

Summary for this molecule, CC(C)NC(=O)Cn1nc(-c2ccc(CCN3C4CCC3COC4)cc2)nc1-c1cccc(Cl)c1 [Example B-01] : IC50 is 1.4 nM

Summary for this molecule, COc1cccc(-c2nc(-c3ccc(CCN4C5CCC4COC5)cn3)nn2CC(=O)NC(C)(C)C)c1 [Example B-07] : IC50 is 4.3 nM

Summary for this molecule, CC(C)NC(=O)Cc1nn(-c2ccc(CCN3CCOCC3)cn2)c(=O)n1-c1cccc(Cl)c1 [Example D-04] : IC50 is 100 to 1000 nM

Summary for this molecule, CC(C)NC(=O)Cc1nc(-c2ccc(CCN3CCCCC3)cc2)sc1-c1cccc(Cl)c1 [Example C-13] : IC50 is 16 nM

Summary for this molecule, CCC1COCCN1CCc1ccc(-c2nc(-c3cccc(OC)c3)n(CC(=O)NC(C)C)n2)cc1 (centres unmarked) [Example B-31] : IC50 is 10 to 100 nM

Summary for this molecule, CC(C)NC(=O)Cc1nn(-c2ccc(CCN3CCC(F)CC3)cc2)c(=O)n1-c1cccc(Cl)c1 [Example D-57] : IC50 is 10 to 100 nM
